Data provenance: the supplement of paper PMC10567573

B1: CPXM2 (parent)
chain: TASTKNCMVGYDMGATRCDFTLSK

variants of: B1; test: protein stability index of a GFP-peptide fusion (GPS, HEK-293T) (PSI 1-6); higher = more stable; conditions: c terminus: a fixed tail appended;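 note: lentivirally expressed fusions sorted by FACS into six bins by GFP to DsRed ratio, PSI derived from sequencing read proportions per bin multiplied by bin number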

mutationName | protein stability index
V9K | 2.12
D19W | 2.24
S3I | 1.67
G14T | 2.76
V9T | 3.22
D19M | 1.82
K24Q | 1.82
Y11R | 2.59
R17W | 2.13
T16S | 2.81
G14D | 3.63
R17Q | 3.67
